biological target: Sky1-353 R335P mutant (Drosophila melanogaster, UniProt Q9VIH7, R335P); construct: the TBC domain of Sky (Sky1-353) was expressed from the pET28a vector (Novagen) as an N-terminal His6-tag fusion; His6 (N); assay: Thermal shift assay, IP3 binding to Sky1-353 R335P
Sequence (Q9VIH7 1-353 R335P): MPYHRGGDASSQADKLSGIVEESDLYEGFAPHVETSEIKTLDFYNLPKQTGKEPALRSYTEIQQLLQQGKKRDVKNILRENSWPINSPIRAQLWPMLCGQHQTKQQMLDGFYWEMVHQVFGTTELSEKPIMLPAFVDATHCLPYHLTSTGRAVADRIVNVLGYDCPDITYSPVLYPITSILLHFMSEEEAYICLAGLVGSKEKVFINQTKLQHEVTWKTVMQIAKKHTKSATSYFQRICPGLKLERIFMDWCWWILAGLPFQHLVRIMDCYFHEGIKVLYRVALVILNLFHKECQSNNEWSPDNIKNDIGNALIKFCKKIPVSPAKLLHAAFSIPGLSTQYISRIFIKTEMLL
readout-type: Kd (µM)
Only the number, expressed in µM, is required.

Quick check: Kd of O=P(O)(O)O[C@@H]1[C@H](O)[C@H](O)[C@@H](OP(=O)(O)O)[C@H](OP(=O)(O)O)[C@H]1O [IP3, inositol 1,4,5-trisphosphate] ?
67

* * *

molecular target: wild type Sky1-353 (TBC domain of Skywalker) (Drosophila melanogaster); construct: the TBC domain of Sky (Sky1-353) was expressed from the pET28a vector (Novagen) as an N-terminal His6-tag fusion; His6 (N); assay: Thermal shift assay, ligand binding to wild type Sky1-353
Sequence (Q9VIH7 1-353): as the sequence (Q9VIH7 1-353 R335P) above, with P335R counted along it
readout-type: pKd
Please keep in mind that pKd is minus log10 of the molar concentration; only the number is needed.

Quick check: pKd of O=P(O)(O)O[C@@H]1[C@H](O)[C@H](O)[C@@H](OP(=O)(O)O)[C@H](OP(=O)(O)O)[C@H]1O [IP3, inositol 1,4,5-trisphosphate] ?
4.72
